Sourced from ChEMBL document CHEMBL4689842

Tested on: U2OS
Test: Multiplex assay against U2OS
Type: toxicity, cell-based
Settings: human, 24 h, 10 µM, compound concentration 10 uM, replicate 2
Please go through the items and note down their Population Apoptotic (%).
# output: bare number, implied unit %

Identify the measured Population Apoptotic (%) of CNC(=O)c1ccc(Nc2nc(OC3CCCC3)c3c(-c4ccc5nc(C)oc5c4)c[nH]c3n2)c(OC)c1 for U2OS.
62

U2OS / Population Apoptotic (%) / O=C(Nc1cccnn1)N1CCC(=Cc2cccc(Oc3ccc(C(F)(F)F)cn3)c2)CC1 : value?
83

Notebook entry, U2OS assay: Population Apoptotic (%) of CN(C)C(=O)C(CCN1CCC(O)(c2ccc(Cl)cc2)CC1)(c1ccccc1)c1ccccc1.Cl [LOPERAMIDE HYDROCHLORIDE] = ?
98

Provide the documented Population Apoptotic (%) with U2OS as the system for S=C(NCCCc1c[nH]cn1)NCCCN(Cc1ccc(Cl)c(Cl)c1)c1ccc(Br)cn1
100

Identify the measured Population Apoptotic (%) of COc1ccc(S(=O)(=O)N(CCO)c2ccccc2CN(C)C/C=C/c2ccc(Cl)cc2)cc1.O=P(O)(O)O for U2OS.
16

Give recorded Population Apoptotic (%) with U2OS for the following compound: COc1cc2ncnc(Nc3ccc(F)c(Cl)c3)c2cc1NC(=O)/C=C/CN1CCCCC1 [DACOMITINIB ANHYDROUS]
50

Write down the reported Population Apoptotic (%) of CN1C2CCC1CC(OC(c1ccc(F)cc1)c1ccc(F)cc1)C2.Cl (stereo not drawn) , test system: U2OS.
80

Record COc1ccc(-c2ccc3c(N4CCOCC4)nc(N4C[C@@H](C)O[C@@H](C)C4)nc3n2)cc1CO : what is its Population Apoptotic (%) with U2OS?
31

----------
What Population Healthy Nuclei (%) was measured for each of the following?
Tested on: Fibroblast
Assay: Multiplex assay against human fibroblast
Assay type: toxicity, cell-based
Settings: 12 h, 1 µM, compound concentration 1 uM, replicate 1
Report as a plain number; the unit % is understood.

# get_value(readout='Population Healthy Nuclei (%)', item= C=CCn1c(=O)c2cnc(Nc3ccc(N4CCN(C)CC4)cc3)nc2n1-c1cccc(C(C)(C)O)n1 )
62

Can you look up the measured Population Healthy Nuclei (%) of CCc1cccc(CC)c1NC(=O)c1nn(C)c2c1CCc1cnc(Nc3ccc(C(=O)NC4CCN(C)CC4)cc3OC(F)(F)F)nc1-2 for me?
38

Using the record for Cl.Oc1ccc2c3c1O[C@H]1c4[nH]c5c(c4C[C@@]4(O)[C@@H](C2)N(CC2CC2)CC[C@]314)C[C@@]1(O)[C@H]2Cc3ccc(O)c4c3[C@@]1(CCN2CC1CC1)[C@H]5O4 , report its Population Healthy Nuclei (%).
40

What value of Population Healthy Nuclei (%) has been reported for the following compound? CN[C@@H]1C[C@H]2O[C@@](C)([C@@H]1OC)n1c3ccccc3c3c4c(c5c6ccccc6n2c5c31)C(=O)NC4
14

What measured Population Healthy Nuclei (%) goes with NC(=O)c1cccc(-c2cc(Nc3ccc(OC(F)(F)F)cc3)ncn2)c1 ?
53

I would be grateful if you could share the reported Population Healthy Nuclei (%) for Cc1ccc(C(=O)Nc2cccc(C(F)(F)F)c2)cc1Nc1nc(-c2cccnc2)nc2c1cnn2C .
29

Looking for the measured Population Healthy Nuclei (%) of CCN1CCN(c2ccc(Nc3cc(N(C)C(=O)Nc4c(Cl)c(OC)cc(OC)c4Cl)ncn3)cc2)CC1 , can you help?
43

Using the record for CN(C)C(=O)C(CCN1CCC(O)(c2ccc(Cl)cc2)CC1)(c1ccccc1)c1ccccc1.Cl [LOPERAMIDE HYDROCHLORIDE] , report its Population Healthy Nuclei (%).
42

Name the recorded Population Healthy Nuclei (%) for CCN1CCN(Cc2ccc(Nc3ncc(F)c(-c4cc(F)c5nc(C)n(C(C)C)c5c4)n3)nc2)CC1.CS(=O)(=O)O .
40

Item Cl.O=C(c1ccc(Nc2nccc(-c3cc4ccccc4s3)n2)cc1)N1CCC(N2CCCC2)CC1 has what recorded Population Healthy Nuclei (%)?
48

For Cn1nc(C(F)(F)F)cc1-c1cnc(N2CCc3cc(S(=O)(=O)Nc4c(F)cc(Cl)cc4F)cc(N4CCCC4=O)c32)nc1 , what is its reported Population Healthy Nuclei (%)?
59

What Population Healthy Nuclei (%) value was documented for this compound, Cc1ccc2nc(NCCN)c3ncc(C)n3c2c1.O=C(O)C(F)(F)F.O=C(O)C(F)(F)F ?
60

Which measured Population Healthy Nuclei (%) value corresponds to CCc1cccc(CC)c1NC(=O)c1nn(C)c2c1CCc1cnc(Nc3ccc(N4CCN(C)CC4)cc3OC)nc1-2 ?
47

Reported Population Healthy Nuclei (%) for O=C1N/C(=N/c2ccccc2F)S/C1=C\c1ccc(C(=O)O)cc1 : what is it?
37

Entry C=C1/C(=C\C=C2/CCC[C@]3(C)[C@@H]([C@H](C)/C=C/[C@H](C)C(C)C)CC[C@@H]23)C[C@@H](O)C[C@@H]1O : reported Population Healthy Nuclei (%) = ?
33

Record request: Population Healthy Nuclei (%) value, item CCOc1cc(C(=O)N2CCC(N3CCN(C)CC3)CC2)ccc1Nc1ncc2c(n1)N(C1CCCC1)c1ccccc1C(=O)N2C
42

What measured Population Healthy Nuclei (%) goes with CCCS(=O)(=O)c1nc(NC2CC2)cc(-c2ccc3c(ccn3C3CC(C)(C)NC(C)(C)C3)c2)n1 ?
42

Which Population Healthy Nuclei (%) is reported for this compound? CCOC(=O)c1c(C)[nH]c2ccc3c(c12)CN1CCc2cc(OC)ccc2C1O3 (stereo unspecified)
51

May I ask what Population Healthy Nuclei (%) has been recorded for COC(=N)c1nc2ccc3ncnc(Nc4ccc(OC)cc4F)c3c2s1 ?
60

I am curious: what Population Healthy Nuclei (%) value has been reported for S=C(NCCCc1c[nH]cn1)NCCCN(Cc1ccc(Cl)c(Cl)c1)c1ccc(Br)cn1 ?
42

I'd like to know its Population Healthy Nuclei (%). The compound in question is O=C(Nc1ccc(-n2nc(-c3cccnc3)cc2C(F)(F)F)cn1)c1ccc(-c2ccccc2)c(F)c1
30

For the compound COc1cc(N2CCN(C)CC2)ccc1Nc1ncc2c(n1)N(C)c1ccccc1C(=O)N2C , what Population Healthy Nuclei (%) is on record?
41

What value of Population Healthy Nuclei (%) has been reported for the following compound? CCNc1cc(N[C@H]2CC[C@H](O)CC2)nc(Nc2ccc3c(ccn3Cc3ccccc3)c2)n1
47

Report Population Healthy Nuclei (%) for Cc1cc(C)c(S(=O)(=O)N(Cc2ccc(-c3cccc(S(C)(=O)=O)c3)cc2)Cc2ccc(C(F)(F)F)o2)c(C)c1 please.
45

Find the recorded Population Healthy Nuclei (%) belonging to CCOc1cc2ncc(C#N)c(Nc3ccc(OCc4ccccn4)c(Cl)c3)c2cc1NC(=O)/C=C/CN(C)C and report it.
37

// query Population Healthy Nuclei (%) value for entry COc1ccc(S(=O)(=O)N(CCO)c2ccccc2CN(C)C/C=C/c2ccc(Cl)cc2)cc1.O=P(O)(O)O
51

So what's the measured Population Healthy Nuclei (%) for this one? Cl.O=c1c2cccn2c2ccccc2n1CCCN1CCC(c2ccc(Cl)cc2)CC1
61

What does the data say about its Population Healthy Nuclei (%)? Entry: CCn1cc(-c2ccnc3[nH]c(-c4cccc(CN(C)C)c4)cc23)c(-c2ccc(NC(=O)N(C)C)cc2)n1
51

For the compound shown here, COc1ccc(-c2ccc3c(N4CCOCC4)nc(N4C[C@@H](C)O[C@@H](C)C4)nc3n2)cc1CO , give the reported Population Healthy Nuclei (%).
52

Record request: Population Healthy Nuclei (%) value, item CNC(=O)c1ccc(Nc2nc(OC3CCCC3)c3c(-c4ccc5nc(C)oc5c4)c[nH]c3n2)c(OC)c1
53

What value of measured Population Healthy Nuclei (%) is listed for CCCn1c(=O)c2[nH]c(-c3cnn(Cc4cccc(C(F)(F)F)c4)c3)nc2n(CC)c1=O ?
32
